# Protocol Notes: Plasma protein binding determination
# Format: in vitro ADME, rat
# Study Conditions: rat plasma, 37 °C, 50 mg/kg; read-out: Rat PPB (%free)
Readout Type: fraction unbound at 50 mg/kg bwt
Provide a numeric answer; units are not to be included.

Solved entries:
CC(=O)c1cc(C(=O)O[C@@H]2/C=C/C(=O)O[C@@H](O)CCC/C=C/[C@@H]3C[C@H](O)C[C@H]32)ccc1OCCN1CC(C(=O)O)=CCC1=O	0.0131
CC(=O)c1cc(C(=O)OC2/C=C/C(=O)O[C@@H](O)CCC/C=C/[C@@H]3C[C@H](O)C[C@@H]23)ccc1OCCN1CCC=C(C(=O)O)C1 (stereo partly shown)	0.0147
CC(=O)c1cc(C(=O)O[C@@H]2/C=C/C(=O)O[C@@H](O)CCC/C=C/[C@@H]3C[C@H](O)C[C@H]32)ccc1OCCN(C)C	0.0124

Form: compound = CC/C(=C(\c1ccc(O)cc1)c1ccc(OCCN(C)C)cc1)c1ccccc1 [Compound 4-OHT., 4-hydroxytamoxifen, reference compound] ; fraction unbound at 50 mg/kg bwt = 0.0252

fraction unbound at 50 mg/kg bwt for CNCCOc1ccc(C(=O)O[C@@H]2/C=C/C(=O)O[C@@H](O)CCC/C=C/[C@@H]3C[C@H](O)C[C@H]32)cc1C(C)=O is 0.0122

Lab note: measured fraction unbound at 50 mg/kg bwt of CC(=O)c1cc(C(=O)O[C@@H]2/C=C/C(=O)O[C@@H](O)CCC/C=C/[C@@H]3C[C@H](O)C[C@H]32)ccc1OCCN1CCCC(O)C1=O (stereo partly shown) was 0.0131

fraction unbound at 50 mg/kg bwt reported for this compound CC(=O)c1cc(C(=O)O[C@@H]2/C=C/C(=O)O[C@@H](O)CCC/C=C/[C@@H]3C[C@H](O)C[C@H]32)ccc1OCCS(=O)(=O)O : 0.0151

----------
Reported BIO values follow for various molecules
# Protocol Notes: Pharmacokinetics study, oral bioavailability
# Study Conditions: rat, oral 5 mg/kg
Marks after values point to notes of the source that are not given here.

See these solved cases before continuing.
CC(=O)c1cc(C(=O)O[C@@H]2/C=C/C(=O)O[C@@H](O)CCC/C=C/[C@@H]3C[C@H](O)C[C@H]32)ccc1OCCN1CCCC(O)C1=O (stereo partly drawn)	93 ^‡
CC(=O)c1cc(C(=O)O[C@@H]2/C=C/C(=O)O[C@@H](O)CCC/C=C/[C@@H]3C[C@H](O)C[C@H]32)ccc1OCCN1CC(C(=O)O)=CCC1=O	94 ^‡

The record that follows has no BIO shown yet.
The reported BIO of the molecule CC/C(=C(\c1ccc(O)cc1)c1ccc(OCCN(C)C)cc1)c1ccccc1 [Compound 4-OHT., 4-hydroxytamoxifen, reference compound] was 88 ^‖

----------
# Protocol Notes: Serum biochemical markers after treatment of MNU-induced rats
# Assay type: in vivo, Wistar rats
# Study Conditions: serum, dose 5 mg/kg
Reported ALT (A/L) values are given for each entry in this list.
State the answer as a number, implicitly in A/L.

Consider the following illustrative entries.
CC(=O)c1cc(C(=O)O[C@@H]2/C=C/C(=O)O[C@@H](O)CCC/C=C/[C@@H]3C[C@H](O)C[C@H]32)ccc1OCCN1CCCC(O)C1=O (stereo partly drawn) [Compound 3DPQ-12]	50.99
CC(=O)c1cc(C(=O)OC2/C=C/C(=O)O[C@@H](O)CCC/C=C/[C@@H]3C[C@H](O)C[C@@H]23)ccc1OCCN1CCC=C(C(=O)O)C1 (stereo partly drawn) [Compound 3DPQ-3]	49.84

Form field ALT (A/L), entry O=C(c1ccc(OCCN2CCCCC2)cc1)c1c(-c2ccc(O)cc2)sc2cc(O)ccc12 [Ral., Raloxifene, reference compound] : 50.14
